Target: human DGKα (Homo sapiens)
Construct: TVMV protease cleavage site (C); Hexa-His (C); made in house; host or cells: Sf9 insect cells (baculovirus, Bac-to-Bac)
Sequence (P23743 with tags, fused parts or gaps): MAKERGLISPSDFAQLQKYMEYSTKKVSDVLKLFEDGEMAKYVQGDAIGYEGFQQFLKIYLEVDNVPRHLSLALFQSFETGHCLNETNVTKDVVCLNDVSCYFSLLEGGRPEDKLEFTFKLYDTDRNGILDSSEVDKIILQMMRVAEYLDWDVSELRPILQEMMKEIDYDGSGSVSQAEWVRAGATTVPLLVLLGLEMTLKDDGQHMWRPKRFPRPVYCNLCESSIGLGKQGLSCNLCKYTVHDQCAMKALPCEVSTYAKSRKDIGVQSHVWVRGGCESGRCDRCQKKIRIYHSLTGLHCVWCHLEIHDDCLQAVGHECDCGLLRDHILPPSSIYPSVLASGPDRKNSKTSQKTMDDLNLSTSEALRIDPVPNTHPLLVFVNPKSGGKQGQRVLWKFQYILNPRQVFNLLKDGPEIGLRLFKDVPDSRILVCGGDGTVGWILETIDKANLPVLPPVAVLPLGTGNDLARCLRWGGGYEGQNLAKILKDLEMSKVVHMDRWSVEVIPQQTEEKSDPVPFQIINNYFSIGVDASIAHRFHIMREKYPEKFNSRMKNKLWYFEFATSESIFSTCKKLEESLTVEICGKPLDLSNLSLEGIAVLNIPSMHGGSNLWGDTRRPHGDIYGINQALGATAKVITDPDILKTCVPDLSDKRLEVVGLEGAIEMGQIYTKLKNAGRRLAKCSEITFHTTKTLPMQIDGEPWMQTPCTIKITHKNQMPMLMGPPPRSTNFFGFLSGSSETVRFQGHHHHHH
Experiment: DGKα LIPGLO assay (extruded liposome substrate), in vitro DGK inhibition
Type: biochemical
Details: DGKα liposome (LIPGLO) assay; read-out: DGKa LIPGLO IC50
Please respond with TRUE when measured IC50 is strictly beneath 3 µM, and with FALSE in all other cases.

Input line: Lab note: IC50 threshold 3 µM. Does this molecule come in strictly under it? C[C@@H]1CN(c2c(C#N)c(=O)n(C)c3ccc(C#N)nc23)[C@@H](C)CN1C(c1cccc(F)c1)c1ccc(C(F)(F)F)cn1 (single isomer, unassigned) [Example 840]
Output line: FALSE

Input line: What would you report for C[C@@H]1CN(c2cc(=O)n(C)c3ccc(C#N)nc23)[C@@H](C)CN1C(c1ccc(F)cc1)c1noc(C(C)(C)C)n1 (single isomer, unassigned) [Example 764] ?
Output line: TRUE

Input line: What would you report for C[C@@H]1CN(c2c(C#N)c(=O)n(C)c3ccc(C#N)nc23)[C@@H](C)CN1C(c1ccccc1)c1cc(F)cc(F)c1 (single isomer, unassigned) [Example 814] ?
Output line: FALSE

Input line: What would you report for C[C@@H]1CN(c2cc(=O)n(C)c3ccc(C#N)nc23)[C@@H](C)CN1C(c1ccc(OC(F)(F)F)cc1)c1nc(C2CC2)no1 (single isomer, unassigned) [Example 758] ?
Output line: TRUE

Input line: What would you report for C[C@@H]1CN(c2c(C#N)c(=O)n(C)c3ccc(C#N)nc23)CCN1C(c1ccc(Cl)cc1)c1ncccc1F (stereo partly drawn) [Example 909] ?
Output line: FALSE

Input line: What would you report for C[C@@H]1CN(c2c(C#N)c(=O)n(C)c3ccc(C#N)nc23)CCN1C(c1ccc(F)cc1)c1cnn(C)c1 (stereo partly drawn) [Example 1016] ?
Output line: FALSE

---

Target: human DGKζ (Homo sapiens)
Construct: TVMV protease cleavage site (C); Hexa-His (C); made in house; host or cells: Sf9 insect cells (baculovirus, Bac-to-Bac)
Sequence (Q13574 with tags, fused parts or gaps isoform Q13574-4): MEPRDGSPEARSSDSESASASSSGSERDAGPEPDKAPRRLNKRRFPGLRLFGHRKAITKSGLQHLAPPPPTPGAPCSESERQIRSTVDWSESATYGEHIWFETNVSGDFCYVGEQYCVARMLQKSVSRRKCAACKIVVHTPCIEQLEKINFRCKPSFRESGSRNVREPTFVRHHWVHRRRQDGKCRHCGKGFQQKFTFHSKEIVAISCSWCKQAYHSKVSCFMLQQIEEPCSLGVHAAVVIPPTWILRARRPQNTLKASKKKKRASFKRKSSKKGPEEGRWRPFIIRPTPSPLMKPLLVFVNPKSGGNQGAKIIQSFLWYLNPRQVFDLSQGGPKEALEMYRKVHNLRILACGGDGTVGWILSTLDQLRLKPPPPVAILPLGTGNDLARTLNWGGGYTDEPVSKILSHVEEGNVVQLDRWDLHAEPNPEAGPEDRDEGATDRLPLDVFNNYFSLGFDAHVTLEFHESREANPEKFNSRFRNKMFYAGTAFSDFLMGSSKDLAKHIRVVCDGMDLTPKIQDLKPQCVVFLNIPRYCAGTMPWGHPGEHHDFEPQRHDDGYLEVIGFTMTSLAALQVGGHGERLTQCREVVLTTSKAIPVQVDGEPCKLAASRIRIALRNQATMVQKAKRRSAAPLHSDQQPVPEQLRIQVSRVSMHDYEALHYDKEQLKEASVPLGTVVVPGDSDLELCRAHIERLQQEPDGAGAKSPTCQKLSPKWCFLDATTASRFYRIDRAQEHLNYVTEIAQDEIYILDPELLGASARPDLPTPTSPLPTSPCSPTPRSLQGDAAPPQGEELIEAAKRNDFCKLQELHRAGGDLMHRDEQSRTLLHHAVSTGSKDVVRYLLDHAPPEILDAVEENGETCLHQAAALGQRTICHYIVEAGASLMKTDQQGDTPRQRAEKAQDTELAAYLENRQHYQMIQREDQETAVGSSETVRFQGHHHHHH
Test: DGKζ LIPGLO assay (extruded liposome substrate), in vitro DGK inhibition
Type: biochemical
Conditions: liposome (LIPGLO) assay; read-out: DGKz LIPGLO IC50
So I've got a bunch of compounds here, and I need their pIC50 values.
Keep in mind that pIC50 stands for -log10 of concentration in molar terms.

Input line: GET /values?readout=pIC50&item= CCc1cc(F)ccc1C(c1ccc(Cl)cc1)N1C[C@H](C)N(c2cc(=O)n(C)c3ccc(C#N)nc23)C[C@H]1C (single isomer, unassigned) [Example 225]
Output line: 6.24

Input line: What would you report for CC(c1ccc(-n2cncn2)cc1)N1C[C@H](C)N(c2cc(=O)n(C)c3ccc(C#N)nc23)C[C@H]1C (single isomer, unassigned) [Example 1238] ?
Output line: 5.49

Input line: What would you report for CC[C@@H]1CN(c2cc(=O)n(C)c3ccc(C#N)nc23)[C@@H](C)CN1Cc1ccc2c(c1)OC(F)(F)O2 [Example 1082] ?
Output line: 5.82

Input line: What would you report for CC(c1c(F)cccc1F)N1C[C@H](C)N(c2cc(=O)n(C)c3ccc(C#N)nc23)C[C@H]1C (stereo partly drawn) [Example 256] ?
Output line: 6.24

Input line: What would you report for COC[C@@H]1CN(c2cc(=O)n(C)c3ccc(C#N)nc23)[C@@H](C)CN1C(c1ccc(F)cc1)c1ccon1 (single isomer, unassigned) [Example 1400] ?
Output line: 7.70

Input line: What would you report for CC[C@@H]1CN(c2cc(=O)n(C)c3ccc(C#N)nc23)[C@@H](C)CN1C(C)c1ccc(OC(F)F)cc1 (stereo partly drawn) [Example 1343] ?
Output line: 7.80
